measured-target: rat FAAH (Rattus norvegicus, UniProt P97612)
Construct: made in house; host or cells: E. coli
Sequence (P97612 whole entry): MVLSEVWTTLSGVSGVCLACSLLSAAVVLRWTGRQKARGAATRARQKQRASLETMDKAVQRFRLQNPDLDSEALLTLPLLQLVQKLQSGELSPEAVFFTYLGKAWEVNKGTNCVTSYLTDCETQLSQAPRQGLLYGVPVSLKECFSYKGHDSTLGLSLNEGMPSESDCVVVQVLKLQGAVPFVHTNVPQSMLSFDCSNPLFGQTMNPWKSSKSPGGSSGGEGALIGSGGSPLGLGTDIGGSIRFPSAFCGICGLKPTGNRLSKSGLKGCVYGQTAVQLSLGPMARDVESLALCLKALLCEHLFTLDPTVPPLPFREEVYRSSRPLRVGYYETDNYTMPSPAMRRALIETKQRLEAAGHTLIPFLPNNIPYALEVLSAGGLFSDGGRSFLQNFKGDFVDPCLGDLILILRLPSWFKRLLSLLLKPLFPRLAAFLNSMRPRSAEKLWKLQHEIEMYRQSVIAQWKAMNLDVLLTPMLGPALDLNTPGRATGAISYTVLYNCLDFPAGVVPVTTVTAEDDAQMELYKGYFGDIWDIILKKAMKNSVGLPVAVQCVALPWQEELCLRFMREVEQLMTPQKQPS
assay-method-text: FAAH assay, rat FAAH enzyme inactivation (kinact/Ki)
Type: biochemical
experimental-parameters: pH 7.4, in vitro, oleamide 50 μM, 30° C., read-out: rFAAH kinact/Ki
Property: kinact/KI; scope: individual compounds
Give just the numeric value; M⁻¹ s⁻¹ need not be written.

{"compound": "Cn1nnnc1NC(=O)N1CCC2(CC1)C[C@H](c1ccc(OCc3cccc(F)c3)cc1)CO2", "unit-abbreviation": "M⁻¹ s⁻¹", "value-reported": 11200}
{"compound": "Cc1noc(NC(=O)N2CCC3(CC2)CC(c2noc(-c4ccc(C(F)(F)F)cc4)n2)CO3)c1C (single isomer, unassigned) [Example 75]", "unit-abbreviation": "M⁻¹ s⁻¹", "value-reported": 1610}
{"compound": "Cc1noc(NC(=O)N2CCC3(CC2)C[C@H](c2cccc(-c4ccc(OC(F)(F)F)cc4)c2)CO3)c1C", "unit-abbreviation": "M⁻¹ s⁻¹", "value-reported": 588}
{"compound": "Cn1nnnc1NC(=O)N1CCC2(CC1)C[C@H](c1ccc(OCc3ccc(F)c(F)c3)cc1)CO2", "unit-abbreviation": "M⁻¹ s⁻¹", "value-reported": 25000}
{"compound": "Cc1noc(NC(=O)N2CCC3(CC2)C[C@H](c2ccc(OCc4ccc(Cl)cc4)cc2)CO3)c1C", "unit-abbreviation": "M⁻¹ s⁻¹", "value-reported": 21900}

Record Cc1noc(NC(=O)N2CCC3(CC2)CC(c2ccc(OCc4ccc(C(F)(F)F)cn4)cc2)CO3)c1C (racemic) , field kinact/KI: 7580

Record Cc1noc(NC(=O)N2CCC3(CC2)C[C@H](c2cccc(-c4ccc(Cl)cc4)c2)CO3)c1C , field kinact/KI: 433

* * *

Property: kinact/KI; scope: individual compounds
measured-target: human FAAH (Homo sapiens, UniProt O00519)
Construct: made in house; host or cells: E. coli
Sequence (O00519 1-579): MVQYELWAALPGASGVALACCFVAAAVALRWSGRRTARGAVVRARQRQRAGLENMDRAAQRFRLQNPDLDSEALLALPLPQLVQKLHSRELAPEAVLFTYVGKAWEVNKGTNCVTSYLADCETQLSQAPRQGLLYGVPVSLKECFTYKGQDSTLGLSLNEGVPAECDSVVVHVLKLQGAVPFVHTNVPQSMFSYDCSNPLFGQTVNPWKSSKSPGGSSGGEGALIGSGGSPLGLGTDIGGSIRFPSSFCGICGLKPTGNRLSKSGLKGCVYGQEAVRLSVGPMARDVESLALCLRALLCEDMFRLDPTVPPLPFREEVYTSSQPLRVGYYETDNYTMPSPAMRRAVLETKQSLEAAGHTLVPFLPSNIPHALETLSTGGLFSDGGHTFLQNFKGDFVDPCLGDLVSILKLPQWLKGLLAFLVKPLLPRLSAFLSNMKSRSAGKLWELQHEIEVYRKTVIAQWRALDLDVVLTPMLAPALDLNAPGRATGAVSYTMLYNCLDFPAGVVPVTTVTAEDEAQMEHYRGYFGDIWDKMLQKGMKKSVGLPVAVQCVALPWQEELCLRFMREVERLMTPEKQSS
assay-method-text: FAAH assay, human FAAH enzyme inactivation (kinact/Ki)
Type: biochemical
experimental-parameters: pH 7.4, in vitro, oleamide 50 μM, 30° C., read-out: hFAAH kinact/Ki
Give just the numeric value; M⁻¹ s⁻¹ need not be written.

Recorded kinact/KI, per entry:
{"compound": "Cc1noc(NC(=O)N2CCC3(CC2)CC(c2cccc(C(F)(F)F)c2)CO3)c1C (racemic) [Example 65]", "kinact/KI / M⁻¹ s⁻¹": 1100}
{"compound": "CCCc1noc(NC(=O)N2CCC3(CC2)CC(c2ccc(Cl)c(Cl)c2)CO3)c1C (single isomer, unassigned)", "kinact/KI / M⁻¹ s⁻¹": 960}
{"compound": "O=C(Nc1cccnc1)N1CCC2(CC1)C[C@@H](c1cccc(Oc3ccc(Br)cn3)c1)CO2", "kinact/KI / M⁻¹ s⁻¹": 1950}
{"compound": "Cn1nnnc1NC(=O)N1CCC2(CC1)C[C@@H](c1ccc(OCc3ccc(F)c(F)c3)cc1)CO2", "kinact/KI / M⁻¹ s⁻¹": 29800}
{"compound": "Cc1noc(NC(=O)N2CCC3(CC2)C[C@H](c2cccc(-c4ccc(Cl)cc4)c2)CO3)c1C", "kinact/KI / M⁻¹ s⁻¹": 1220}

Attention now turns to another entry.
Record O=C(Nc1cccnn1)N1CCC2(CC1)C[C@H](c1cccc(Oc3ccc(Cl)cn3)c1)CO2 , field kinact/KI: 2420

* * *

measured-target: human FAAH (Homo sapiens, UniProt O00519)
Construct: made in house; host or cells: E. coli
assay-method-text: FAAH assay, human FAAH enzyme inactivation (kinact/Ki)
Assay type: biochemical
experimental-parameters: pH 7.4, in vitro, oleamide 50 μM, 30° C., read-out: hFAAH kinact/Ki
Description: The FAAH assay was carried out in 384-well clear polystyrene plates (Evergreen Scientific) in a total volume of 50 μl per well in a manner similar to that described by Mileni et al., Proc. Nat. Acad. Sci. 2008, 105, 12820-12824. All percents are by volume. […] The reactions were incubated at 30° C. and the absorbance at 340 nm was collected over a period of 90 min with readings taken in 30-second intervals using SpectraMax Plus^384 Microplate Spectrophotometer (Molecular Devices, Sunnyvale, Calif.). […]
Property: kinact/KI; scope: individual compounds
Give just the numeric value; M⁻¹ s⁻¹ need not be written.

Recorded kinact/KI, per entry:
{"compound": "Cc1noc(NC(=O)N2CCC3(CC2)CC(c2cc(F)cc(Cl)c2)CO3)c1C (single isomer, unassigned) [Example 39]", "kinact/KI [M⁻¹ s⁻¹]": 1810}
{"compound": "Cc1noc(NC(=O)N2CCC3(CC2)CC(c2ccc(OCc4cccc(Cl)c4)c(Cl)c2)CO3)c1C (racemic) [Example 21]", "kinact/KI [M⁻¹ s⁻¹]": 3100}
{"compound": "Cn1nnnc1NC(=O)N1CCC2(CC1)C[C@H](c1cccc(-c3ccc(OC(F)(F)F)cc3)c1)CO2 [Example 97]", "kinact/KI [M⁻¹ s⁻¹]": 16900}

Attention now turns to another entry.
Record Cc1noc(NC(=O)N2CCC3(CC2)CC(c2ccc(OCc4cc(F)ccc4F)cc2)CO3)c1C (racemic) [Example 31] , field kinact/KI: 3580

* * *

Property: kinact/KI; scope: individual compounds
measured-target: human FAAH (Homo sapiens, UniProt O00519)
Construct: made in house; host or cells: E. coli
assay-method-text: FAAH assay, human FAAH enzyme inactivation (kinact/Ki)
Assay type: biochemical
experimental-parameters: pH 7.4, in vitro, oleamide 50 μM, 30° C., read-out: hFAAH kinact/Ki
Method: The FAAH assay was carried out in 384-well clear polystyrene plates (Evergreen Scientific) in a total volume of 50 μl per well in a manner similar to that described by Mileni et al., Proc. Nat. Acad. Sci. 2008, 105, 12820-12824. All percents are by volume. […] The reactions were incubated at 30° C. and the absorbance at 340 nm was collected over a period of 90 min with readings taken in 30-second intervals using SpectraMax Plus^384 Microplate Spectrophotometer (Molecular Devices, Sunnyvale, Calif.). […]
Give just the numeric value; M⁻¹ s⁻¹ need not be written.

{"compound": "Cn1nnnc1NC(=O)N1CCC2(CC1)C[C@@H](c1ccc(OCc3ccc(F)cc3)cc1)CO2 [Example 91]", "unit-abbreviation": "M⁻¹ s⁻¹", "value-reported": 21200}
{"compound": "Cc1noc(NC(=O)N2CCC3(CC2)CC(c2ccc(F)c(Cl)c2)CO3)c1C (racemic) [Example 28]", "unit-abbreviation": "M⁻¹ s⁻¹", "value-reported": 1580}
{"compound": "Cc1noc(NC(=O)N2CCC3(CC2)CC(c2ccc(OCc4ccc(F)cc4)cc2)CO3)c1C (racemic) [Example 17]", "unit-abbreviation": "M⁻¹ s⁻¹", "value-reported": 6960}
{"compound": "Cc1noc(NC(=O)N2CCC3(CC2)C[C@H](c2cccc(-c4ccc(C(F)(F)F)cn4)c2)CO3)c1C [Example 98]", "unit-abbreviation": "M⁻¹ s⁻¹", "value-reported": 2820}
{"compound": "Cc1noc(NC(=O)N2CCC3(CC2)CC(c2ccc(OCc4ccccc4Cl)c(Cl)c2)CO3)c1C (racemic) [Example 18]", "unit-abbreviation": "M⁻¹ s⁻¹", "value-reported": 2290}

Record Cc1noc(NC(=O)N2CCC3(CC2)C[C@@H](c2ccc(OCc4ccc(F)cc4)cc2)CO3)c1C [Example 42] , field kinact/KI: 5590

Record Cn1nnnc1NC(=O)N1CCC2(CC1)CC(c1noc(-c3ccc(OC(F)(F)F)cc3)n1)CO2 (single isomer, unassigned) [Example 84] , field kinact/KI: 8420

* * *

measured-target: rat FAAH (Rattus norvegicus)
Construct: made in house; host or cells: E. coli
assay-method-text: FAAH assay, rat FAAH enzyme inactivation (kinact/Ki)
Format: biochemical
experimental-parameters: in vitro, oleamide 50 μM, 30° C., pH 7.4
endpoint: rFAAH kinact/Ki (M⁻¹ s⁻¹)
Give just the numeric value; M⁻¹ s⁻¹ need not be written.

Recorded rFAAH kinact/Ki, per entry:
{"molecule": "Cc1noc(NC(=O)N2CCC3(CC2)CC(c2cc(F)cc(Cl)c2)CO3)c1C (single isomer, unassigned) [Example 39]", "endpoint": "rFAAH kinact/Ki", "value-reported": 1510}
{"molecule": "Cn1nnnc1NC(=O)N1CCC2(CC1)CC(c1noc(-c3ccc(OC(F)(F)F)cc3)n1)CO2 (single isomer, unassigned)", "endpoint": "rFAAH kinact/Ki", "value-reported": 1340}
{"molecule": "Cn1nnnc1NC(=O)N1CCC2(CC1)CC(c1noc(-c3ccc(C(F)(F)F)cc3)n1)CO2 (single isomer, unassigned)", "endpoint": "rFAAH kinact/Ki", "value-reported": 974}
{"molecule": "Cc1noc(NC(=O)N2CCC3(CC2)CC(c2noc(-c4ccc(OC(F)(F)F)cc4)n2)CO3)c1C (single isomer, unassigned)", "endpoint": "rFAAH kinact/Ki", "value-reported": 1340}

Attention now turns to another entry.
Record Cc1noc(NC(=O)N2CCC3(CC2)CC(c2cccc(Cl)c2)CO3)c1C (single isomer, unassigned) [Example 36] , field rFAAH kinact/Ki: 3830
